assay: self-splicing fitness, log relative to wild type (ln ratio); higher = more splicing; Tetrahymena group I intron in knt gene, E. coli kanamycin selection, DiMSum; sequences stand for … in CUCUCU…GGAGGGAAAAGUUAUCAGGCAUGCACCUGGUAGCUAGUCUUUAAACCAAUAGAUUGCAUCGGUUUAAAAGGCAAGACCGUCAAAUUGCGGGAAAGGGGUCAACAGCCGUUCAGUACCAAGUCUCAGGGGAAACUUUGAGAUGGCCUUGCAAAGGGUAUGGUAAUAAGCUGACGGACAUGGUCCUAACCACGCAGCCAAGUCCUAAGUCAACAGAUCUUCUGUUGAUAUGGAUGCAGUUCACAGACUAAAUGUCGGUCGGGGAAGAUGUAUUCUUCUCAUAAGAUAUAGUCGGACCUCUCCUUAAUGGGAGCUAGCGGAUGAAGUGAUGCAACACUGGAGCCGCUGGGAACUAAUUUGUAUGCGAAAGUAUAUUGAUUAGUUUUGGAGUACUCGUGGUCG; conditions: 30 °C;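 further: selection with 25 µg/mL kanamycin versus none on LB agar overnight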
# key: entry, value: self-splicing fitness (ln)

ordered_residues: AACAAGCAAUAUUACGGUGC
self-splicing fitness (ln): -3.67
//
ordered_residues: UUCAAGCAAUAUUACGUCCU
self-splicing fitness (ln): -1.99
//
ordered_residues: CCUCAGCAAUAUUACGAGUA
self-splicing fitness (ln): -3.06
//
ordered_residues: UGCAAGCAAUAUUACGCCAU
self-splicing fitness (ln): -4.18
//
ordered_residues: AGUCAGCAAUAUUACGCCAC
self-splicing fitness (ln): -3.68
//
ordered_residues: AGGUAGCAAUAUUACGAGGA
self-splicing fitness (ln): -3.39
//
ordered_residues: UAGGAGCAAUAUUACGUAGC
self-splicing fitness (ln): -3.98
//
ordered_residues: CGACAGCAAUAUUACGUGGU
self-splicing fitness (ln): -3.79
//
ordered_residues: AAUGAGCAAUAUUACGUGCG
self-splicing fitness (ln): -2
//
ordered_residues: CACAAGCAAUAUUACGCGUG
self-splicing fitness (ln): -2.76
//
ordered_residues: AACUAGCAAUAUUACGUUAA
self-splicing fitness (ln): -2.93
//
ordered_residues: AUUCAGCAAUAUUACGGCAA
self-splicing fitness (ln): -0.94
//
ordered_residues: GGAUAGCAAUAUUACGGGCC
self-splicing fitness (ln): -2.56
//
ordered_residues: UCGCAGCAAUAUUACGGUAU
self-splicing fitness (ln): -3.36
//
ordered_residues: UAAUAGCAAUAUUACGGGAU
self-splicing fitness (ln): -4.36
//
ordered_residues: ACUUAGCAAUAUUACGGGCG
self-splicing fitness (ln): -0.769
//
ordered_residues: CAGAAGCAAUAUUACGUCCU
self-splicing fitness (ln): -1.94
//
ordered_residues: AGCCAGCAAUAUUACGUAAC
self-splicing fitness (ln): -2.67
//
ordered_residues: CUAUAGCAAUAUUACGCUUC
self-splicing fitness (ln): -2.46
//
ordered_residues: CCGGAGCAAUAUUACGCUGA
self-splicing fitness (ln): -1.42
//
ordered_residues: ACGCAGCAAUAUUACGACAC
self-splicing fitness (ln): -1.83
//
ordered_residues: ACCUAGCAAUAUUACGGUAC
self-splicing fitness (ln): -3.75
//
ordered_residues: ACAAAGCAAUAUUACGACUG
self-splicing fitness (ln): -0.48
//
ordered_residues: GCUCAGCAAUAUUACGUACU
self-splicing fitness (ln): -0.953
//
ordered_residues: GUCCAGCAAUAUUACGAUGG
self-splicing fitness (ln): -3.74
//
ordered_residues: ACGUAGCAAUAUUACGGCUA
self-splicing fitness (ln): -1.9
//
ordered_residues: ACGAAGCAAUAUUACGCCGC
self-splicing fitness (ln): -3.56
//
ordered_residues: CUACAGCAAUAUUACGCCUG
self-splicing fitness (ln): -1.43
//
ordered_residues: AUGGAGCAAUAUUACGGUAU
self-splicing fitness (ln): -3.49
//
ordered_residues: CCCUAGCAAUAUUACGUCGU
self-splicing fitness (ln): -3.42
//
ordered_residues: GCAUAGCAAUAUUACGUUAA
self-splicing fitness (ln): -2.44
//
ordered_residues: CCCCAGCAAUAUUACGACGU
self-splicing fitness (ln): -3.45
//
ordered_residues: GCCAAGCAAUAUUACGGAAA
self-splicing fitness (ln): -1.46
//
ordered_residues: CCCCAGCAAUAUUACGUUUG
self-splicing fitness (ln): -4.17
//
ordered_residues: AUAGAGCAAUAUUACGCCCA
self-splicing fitness (ln): -1.09
//
ordered_residues: GUGAAGCAAUAUUACGGAAU
self-splicing fitness (ln): -1.06
//
ordered_residues: CCCAAGCAAUAUUACGGGAU
self-splicing fitness (ln): -3.41
//
ordered_residues: GCAAAGCAAUAUUACGGAAA
self-splicing fitness (ln): -1.88
//
ordered_residues: ACCCAGCAAUAUUACGAUUC
self-splicing fitness (ln): -1.71
//
ordered_residues: ACGUAGCAAUAUUACGGAGA
self-splicing fitness (ln): -3.36
//
ordered_residues: AUACAGCAAUAUUACGUAGG
self-splicing fitness (ln): -2.13
//
ordered_residues: GGUCAGCAAUAUUACGAAGG
self-splicing fitness (ln): -0.594
//
ordered_residues: ACAGAGCAAUAUUACGUCGC
self-splicing fitness (ln): -2.98
//
ordered_residues: CGUCAGCAAUAUUACGUUCU
self-splicing fitness (ln): -1.39
//
ordered_residues: UGAAAGCAAUAUUACGCCCG
self-splicing fitness (ln): -0.527
//
ordered_residues: AAUCAGCAAUAUUACGAGUG
self-splicing fitness (ln): -0.769
//
ordered_residues: UAGUAGCAAUAUUACGACAG
self-splicing fitness (ln): -2.01
//
ordered_residues: GACUAGCAAUAUUACGCCUC
self-splicing fitness (ln): -0.374
//
ordered_residues: UGGCAGCAAUAUUACGUAGA
self-splicing fitness (ln): -0.926
//
ordered_residues: GCGUAGCAAUAUUACGAGUG
self-splicing fitness (ln): -1.78
//
ordered_residues: AUCGAGCAAUAUUACGUUGG
self-splicing fitness (ln): -4.07
//
ordered_residues: CAUGAGCAAUAUUACGCAAC
self-splicing fitness (ln): -1.07
//
ordered_residues: ACAAAGCAAUAUUACGGUUA
self-splicing fitness (ln): -1.58
//
ordered_residues: AGUCAGCAAUAUUACGGUAC
self-splicing fitness (ln): -3
//
ordered_residues: CAAGAGCAAUAUUACGUCAG
self-splicing fitness (ln): -3.25
//
ordered_residues: UCGUAGCAAUAUUACGGUUG
self-splicing fitness (ln): -2.14
//
ordered_residues: CUGGAGCAAUAUUACGGUGG
self-splicing fitness (ln): -3.55
//
ordered_residues: UUAGAGCAAUAUUACGGCGG
self-splicing fitness (ln): -0.922
//
ordered_residues: ACGUAGCAAUAUUACGCGAG
self-splicing fitness (ln): -3.43
//
ordered_residues: UCCGAGCAAUAUUACGUUGG
self-splicing fitness (ln): -3.33
//
ordered_residues: CGCGAGCAAUAUUACGCCCU
self-splicing fitness (ln): -3.1
//
ordered_residues: ACACAGCAAUAUUACGCCGC
self-splicing fitness (ln): -3.21
//
ordered_residues: AGCCAGCAAUAUUACGCUUC
self-splicing fitness (ln): -3.53
//
ordered_residues: CAUGAGCAAUAUUACGUGCA
self-splicing fitness (ln): -1.37
//
ordered_residues: ACACAGCAAUAUUACGUUAC
self-splicing fitness (ln): -3.18
//
ordered_residues: AAGCAGCAAUAUUACGCCGU
self-splicing fitness (ln): -1.22
//
ordered_residues: UCUCAGCAAUAUUACGGAUU
self-splicing fitness (ln): -1.73
